molecular target: human GABAA α5β2γ1 receptor (Homo sapiens (Human), UniProt P31644+Q8N1C3); assay: Radioligand binding assay for γ1-containing GABAA subtypes, [3H]RO7239181 competition (α5β2γ1)
# reported pKi; entries follow
Scale explanation: pKi corresponds to minus log10 of a concentration expressed in moles per litre.

Previously resolved entries follow.
molecule | pKi
C[C@@H]1N=C(c2ncccc2F)c2c(ccc(C(F)(F)F)c2Cl)-n2nc(C(=O)N3CC4(CCO4)C3)nc21 [Example 119] | 7.99
CO[C@@H]1CCN(C(=O)c2nc3n(n2)-c2ccc(Cl)c(Cl)c2C(c2c(F)cccc2F)=N[C@H]3C)C1 [Example 46] | 8.67
Cc1cn2c(n1)[C@H](C)N=C(c1ncccc1F)c1c-2ccc(C(F)(F)F)c1Cl [Example 139] | 8.26

Ask | Give the measured pKi of Cc1cnc2n1-c1ccc(Br)c(Cl)c1C(c1c(F)cccc1F)=N[C@H]2C [Example 116] .
Reply | 8.61
